Reference source: patent US20250214991A1

biological target: IKZF1 (Homo sapiens (Human), UniProt Q13422+Q96SW2); test: In vitro IKZF1 HiBit Assay (HEK293T Flp-in-HiBiT-IKZF1 stable cell line); assay type: cell-based; details: HEK293T Flp-in-HiBiT-IKZF1 stable cell line, 6 hrs incubation; read-out: IKZF1 HiBit DC50
Sequence (Q13422 whole entry): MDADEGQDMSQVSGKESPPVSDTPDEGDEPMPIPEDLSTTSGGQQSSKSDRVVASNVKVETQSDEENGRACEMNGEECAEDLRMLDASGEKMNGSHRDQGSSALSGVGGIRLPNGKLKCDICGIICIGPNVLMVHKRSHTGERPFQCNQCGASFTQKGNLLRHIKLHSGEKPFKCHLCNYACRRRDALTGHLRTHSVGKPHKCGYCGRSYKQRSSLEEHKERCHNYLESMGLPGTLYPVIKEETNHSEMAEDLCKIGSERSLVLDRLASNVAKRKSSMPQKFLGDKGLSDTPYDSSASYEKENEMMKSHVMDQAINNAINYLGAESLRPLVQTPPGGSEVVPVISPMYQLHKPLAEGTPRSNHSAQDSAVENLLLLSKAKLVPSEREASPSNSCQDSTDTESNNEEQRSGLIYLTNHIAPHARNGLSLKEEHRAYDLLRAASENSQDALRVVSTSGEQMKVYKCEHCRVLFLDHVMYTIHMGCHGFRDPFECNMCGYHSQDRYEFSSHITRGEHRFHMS
Sequence (Q96SW2 whole entry): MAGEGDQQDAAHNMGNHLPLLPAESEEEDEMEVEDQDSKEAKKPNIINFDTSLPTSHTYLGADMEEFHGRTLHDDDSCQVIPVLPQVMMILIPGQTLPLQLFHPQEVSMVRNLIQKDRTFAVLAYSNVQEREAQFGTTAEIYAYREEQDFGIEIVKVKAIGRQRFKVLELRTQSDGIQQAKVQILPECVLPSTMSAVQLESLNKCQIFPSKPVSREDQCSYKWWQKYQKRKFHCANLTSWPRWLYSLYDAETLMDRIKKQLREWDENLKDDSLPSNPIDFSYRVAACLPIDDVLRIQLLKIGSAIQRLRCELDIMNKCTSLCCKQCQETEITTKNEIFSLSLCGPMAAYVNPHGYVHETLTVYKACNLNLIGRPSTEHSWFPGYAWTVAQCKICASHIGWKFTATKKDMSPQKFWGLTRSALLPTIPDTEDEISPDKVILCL
Sequence (Q16531 2-1140 partner): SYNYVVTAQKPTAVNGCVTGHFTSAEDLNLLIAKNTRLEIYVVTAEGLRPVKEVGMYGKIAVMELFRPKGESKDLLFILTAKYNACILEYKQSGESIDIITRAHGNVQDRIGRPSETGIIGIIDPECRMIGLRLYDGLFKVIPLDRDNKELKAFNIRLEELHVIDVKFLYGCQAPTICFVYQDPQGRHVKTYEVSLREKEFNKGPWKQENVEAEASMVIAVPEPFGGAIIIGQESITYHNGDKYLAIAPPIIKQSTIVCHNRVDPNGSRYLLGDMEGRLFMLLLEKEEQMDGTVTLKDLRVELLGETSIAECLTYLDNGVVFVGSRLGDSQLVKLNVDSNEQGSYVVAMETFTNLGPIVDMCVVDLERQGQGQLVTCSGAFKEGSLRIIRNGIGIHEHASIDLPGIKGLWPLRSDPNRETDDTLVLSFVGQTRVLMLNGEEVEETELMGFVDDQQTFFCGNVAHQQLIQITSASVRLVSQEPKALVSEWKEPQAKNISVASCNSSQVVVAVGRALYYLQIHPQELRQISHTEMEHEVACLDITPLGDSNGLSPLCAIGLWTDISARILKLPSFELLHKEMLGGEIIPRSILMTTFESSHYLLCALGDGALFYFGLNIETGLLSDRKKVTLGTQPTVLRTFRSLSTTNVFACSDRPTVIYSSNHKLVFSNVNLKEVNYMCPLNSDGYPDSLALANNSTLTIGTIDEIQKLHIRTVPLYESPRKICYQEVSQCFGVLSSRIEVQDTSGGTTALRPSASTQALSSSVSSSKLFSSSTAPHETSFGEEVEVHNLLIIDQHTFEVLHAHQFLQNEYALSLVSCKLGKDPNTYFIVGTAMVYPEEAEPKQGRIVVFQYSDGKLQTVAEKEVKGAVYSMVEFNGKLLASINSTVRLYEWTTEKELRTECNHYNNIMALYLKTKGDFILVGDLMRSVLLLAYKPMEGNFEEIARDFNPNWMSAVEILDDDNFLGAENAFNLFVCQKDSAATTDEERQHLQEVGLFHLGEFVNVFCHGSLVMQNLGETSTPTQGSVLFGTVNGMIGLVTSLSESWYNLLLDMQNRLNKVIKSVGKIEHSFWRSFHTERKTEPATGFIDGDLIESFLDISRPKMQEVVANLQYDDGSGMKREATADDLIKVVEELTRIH
Assign DC50 to each entry below.

Consider the worked cases shown below.
Cn1ccnc1N1CCN(Cc2cc(-c3ccc4c(c3)CN(C3CCC(=O)NC3=O)C4=O)nc3c2ccn3C)CC1 (stereo not shown) : > 10000 nM
CN1CC(n2ccc3c(CN4CCCC4)cc(-c4ccc5c(c4F)CN(C4CCC(=O)NC4=O)C5=O)nc32)C1 (stereo not shown) : 10 to 100 nM
CNc1[nH]nc2c(CN3CCCC3)cc(-c3ccc4c(c3F)CN(C3CCC(=O)NC3=O)C4=O)nc12 (stereo not shown) : 1 to 10 nM

Tell me DC50 reported for O=C1CCC(N2Cc3cc(-c4cc(CN5CCC5)c5cc[nH]c5n4)ccc3C2=O)C(=O)N1 (stereo not shown)
10 to 100 nM
